Entries and their %Inh values follow.
tested on: PRKG2; conditions: concentration: 1 μM, replicates: in singlicate; n = 1;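 note: KINOMEscan kinase panel screen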

>  <compound>
Nc1n[nH]c2nnc(-c3ccccc3)c(-c3ccccc3)c12

>  <system.under.test>
PRKG2

>  <%Inh [%]>
0

$$$$
>  <compound>
Nc1ncnc2c1ncn2-c1ccc(Cl)cc1

>  <system.under.test>
PRKG2

>  <%Inh [%]>
0

$$$$
>  <compound>
CCC(=O)c1c(-c2ccccc2)c2cc(Cl)ccc2c(=O)n1Cc1cc(C(=O)NC2CC2)n(C)n1

>  <system.under.test>
PRKG2

>  <%Inh [%]>
0

$$$$
>  <compound>
CCC(=O)c1c(-c2ccccc2)c2cc(Cl)ccc2c(=O)n1Cc1cc(S(C)(=O)=O)n(CC(F)F)n1

>  <system.under.test>
PRKG2

>  <%Inh [%]>
0

$$$$
>  <compound>
COc1ccc(Nc2nccc(N3CCC(NS(=O)(=O)c4ccc(NC(C)=O)cc4)C3)n2)cc1 (stereo not drawn)

>  <system.under.test>
PRKG2

>  <%Inh [%]>
0

$$$$
>  <compound>
Nc1n[nH]c2ncc(-c3ccccc3)cc12

>  <system.under.test>
PRKG2

>  <%Inh [%]>
0

$$$$
>  <compound>
COc1ccc(-c2cc3c(C)nc(N)nc3n([C@H]3CC[C@H](O)CC3)c2=O)cn1

>  <system.under.test>
PRKG2

>  <%Inh [%]>
0

$$$$
>  <compound>
Cc1nn2c(=O)cc(N3CCOCC3)nc2n1Cc1cccc(Cl)c1Cl

>  <system.under.test>
PRKG2

>  <%Inh [%]>
0

$$$$
>  <compound>
CCC(=O)c1c(-c2ccccc2)c2cc(Cl)ccc2c(=O)n1Cc1cc(S(C)(=O)=O)n(CC(N)=O)n1

>  <system.under.test>
PRKG2

>  <%Inh [%]>
0

$$$$
>  <compound>
Cc1cccc(-c2cc(-c3c[nH]nc3-c3ccccn3)ccn2)c1

>  <system.under.test>
PRKG2

>  <%Inh [%]>
0

$$$$
>  <compound>
CCC(=O)c1c(-c2ccccc2)c2cc(Cl)ccc2c(=O)n1Cc1cc(S(C)(=O)=O)n(CCC(C)(C)O)n1

>  <system.under.test>
PRKG2

>  <%Inh [%]>
21

$$$$
>  <compound>
O=C1NC(=O)C(c2ccccc2)=C1Nc1cccc(O)c1

>  <system.under.test>
PRKG2

>  <%Inh [%]>
2

$$$$
>  <compound>
COc1ccc(-c2cc3c(C)nc(N)nc3n([C@H]3CC[C@H](OCCO)CC3)c2=O)cn1

>  <system.under.test>
PRKG2

>  <%Inh [%]>
0

$$$$
>  <compound>
O=c1cc(N2CCOCC2)nc2n(Cc3ccc(F)c(Cl)c3)ccn12

>  <system.under.test>
PRKG2

>  <%Inh [%]>
0

$$$$
>  <compound>
Nc1ncnc2c1ncn2-c1cccc2ccccc12

>  <system.under.test>
PRKG2

>  <%Inh [%]>
0

$$$$
>  <compound>
O=C(Nc1n[nH]c2nc(-c3ccccc3)c(Cl)cc12)C1CC1

>  <system.under.test>
PRKG2

>  <%Inh [%]>
20

$$$$
>  <compound>
COc1ccc(CNC(=O)NC2CCN(c3ccnc(Nc4ccc(F)cc4)n3)C2)cc1 (stereo not drawn)

>  <system.under.test>
PRKG2

>  <%Inh [%]>
20

$$$$
>  <compound>
Cl.NS(=O)(=O)c1cccc(Nc2cc(-c3ccc(F)cc3)n[nH]2)c1

>  <system.under.test>
PRKG2

>  <%Inh [%]>
0

$$$$
>  <compound>
COC(=O)c1c(-c2ccccc2)c2cc(Br)ccc2c(=O)n1Cc1ccc(S(C)(=O)=O)cc1

>  <system.under.test>
PRKG2

>  <%Inh [%]>
8

$$$$
>  <compound>
CCn1c(-c2ccoc2)nc2cnccc21

>  <system.under.test>
PRKG2

>  <%Inh [%]>
0

$$$$
>  <compound>
Nc1nc(N)c2nc(-c3ccccc3)[nH]c2n1

>  <system.under.test>
PRKG2

>  <%Inh [%]>
0

$$$$

* * *

test system: JAK1(JH2domain-pseudokinase); conditions: concentration: 1 μM, replicates: in singlicate; n = 1
Quick rule: %Inh of at least 7% means true, below that means false.

>  <compound>
Cl.c1ccc(Cn2cnc3cc(Nc4ncnc5ccccc45)ccc32)cc1 [GW272142]

>  <classification>
false

$$$$
>  <compound>
COC(=O)c1c(-c2ccccc2)c2cc(Br)ccc2c(=O)n1Cc1ccc(NC(=O)CCC(=O)O)cc1

>  <classification>
false

$$$$
>  <compound>
CCc1ccc(-c2ccc3c(c2)-c2nn(C)cc2S(=O)(=O)N3C)cc1

>  <classification>
true

$$$$
>  <compound>
O=C1NC(=O)C(c2ccccc2)=C1Nc1cccc(O)c1 [SB-390534]

>  <classification>
true

$$$$
>  <compound>
CCn1c(-c2ccoc2)nc2cnccc21 [SB-733887]

>  <classification>
true

$$$$

* * *

system: CSNK1A1L; conditions: concentration: 1 μM, replicates: in singlicate; n = 1
observable: %Inh (%)

>  <compound>
Nc1n[nH]c2nnc(-c3ccccc3)c(-c3ccccc3)c12 [GW554060]

>  <observable>
%Inh

>  <test.result>
13

$$$$
>  <compound>
COc1cc(Nc2nccc(N3CCC(NC(=O)C4COc5ccccc5O4)C3)n2)cc(OC)c1OC (centres unmarked) [GSK1379761]

>  <observable>
%Inh

>  <test.result>
0

$$$$
>  <compound>
COc1cc2ncn(-c3cc(OCc4ccncc4Br)c(C(N)=O)s3)c2cc1OC [GW854278]

>  <observable>
%Inh

>  <test.result>
10

$$$$
>  <compound>
COc1cc2nccc(Nc3ccc(OCc4ccc(NC(C)=O)cc4)cc3)c2cc1OC.Cl [GW440135]

>  <observable>
%Inh

>  <test.result>
15

$$$$
>  <compound>
COC(=O)c1c(-c2ccccc2)c2cc(Br)ccc2c(=O)n1Cc1ccc(S(C)(=O)=O)cc1

>  <observable>
%Inh

>  <test.result>
9

$$$$
>  <compound>
Cc1cccc(-c2cc(-c3c[nH]nc3-c3ccccn3)ccn2)c1 [GW679395]

>  <observable>
%Inh

>  <test.result>
2

$$$$
>  <compound>
COc1ccc(-c2cc3c(C)nc(N)nc3n([C@H]3CC[C@H](OCCO)CC3)c2=O)cn1

>  <observable>
%Inh

>  <test.result>
0

$$$$
>  <compound>
Cc1c(Cn2c(C)nn3c(=O)cc(N4CCO[C@H](C)C4)nc23)cccc1C(F)(F)F [GSK2373690]

>  <observable>
%Inh

>  <test.result>
2

$$$$
>  <compound>
Nc1nc(N)c2nc(-c3ccccc3)[nH]c2n1 [SKF-12778]

>  <observable>
%Inh

>  <test.result>
0

$$$$
>  <compound>
COc1cccc(C2=C(N(C)c3ccccc3)C(=O)NC2=O)c1 [SB-334865]

>  <observable>
%Inh

>  <test.result>
1

$$$$
>  <compound>
Cc1nn2c(=O)cc(N3CCOCC3)nc2n1Cc1cccc(Cl)c1Cl [GSK2342769]

>  <observable>
%Inh

>  <test.result>
22

$$$$
>  <compound>
Cc1nnc(-c2ccc3ncn(-c4ccc(S(C)=O)cc4)c3c2)o1 (centres unmarked)

>  <observable>
%Inh

>  <test.result>
14

$$$$
>  <compound>
COC(=O)c1c(-c2ccccc2)c2cc(C)ccc2c(=O)n1Cc1ccccc1

>  <observable>
%Inh

>  <test.result>
0

$$$$
>  <compound>
Cc1ccc(Oc2ccc(Nc3ncnc4cc[nH]c34)cc2C)cn1

>  <observable>
%Inh

>  <test.result>
11

$$$$

* * *

system: VPS34; construct: gene PIK3C3; conditions: concentration: 1 μM, replicates: in singlicate; n = 1

>  <molecule>
Nc1n[nH]c2nnc(-c3ccccc3)c(-c3ccccc3)c12 [GW554060]

>  <%Inh [%]>
0

$$$$
>  <molecule>
O=C(NCCNc1ccnc(Nc2ccc(F)cc2)n1)Nc1ccc2c(c1)OCO2 [GSK1379882]

>  <%Inh [%]>
0

$$$$
>  <molecule>
CCCNC(=O)Nc1ccc(Oc2ncnc3ccn(C)c23)cc1

>  <%Inh [%]>
34

$$$$
>  <molecule>
CCC(=O)c1c(-c2ccccc2)c2cc(Cl)ccc2c(=O)n1Cc1ccc(C(=O)O)cc1

>  <%Inh [%]>
7

$$$$
>  <molecule>
CN1C(=O)C(Nc2cc(Cl)c(O)c(Cl)c2)=C(c2ccc(Cl)cc2)C1=O [SB-404321]

>  <%Inh [%]>
0

$$$$
>  <molecule>
Cc1nnc(-c2ccc(C)c(-c3ccc(C(=O)O)cc3)c2)o1 [GW608005]

>  <%Inh [%]>
0

$$$$
>  <molecule>
CCS(=O)c1ccc(-c2coc3ccc(-c4nnc(C)o4)cc23)cc1 (stereo not drawn)

>  <%Inh [%]>
15

$$$$
>  <molecule>
Cl.NS(=O)(=O)c1cccc(Nc2cc(-c3ccc(F)cc3)n[nH]2)c1 [GW824645]

>  <%Inh [%]>
29

$$$$
>  <molecule>
O=c1cc(N2CCOCC2)nc2n(Cc3ccc(F)c(Cl)c3)ccn12 [GSK2297099]

>  <%Inh [%]>
95.2

$$$$
>  <molecule>
O=C(NCc1cccs1)c1cc(C(=O)c2c(Cl)cccc2Cl)c[nH]1 [GW823670]

>  <%Inh [%]>
0

$$$$
>  <molecule>
COc1cc2nccc(Nc3cccc(Oc4ccccc4)c3)c2cc1OC.Cl [GW284543]

>  <%Inh [%]>
35

$$$$
>  <molecule>
COc1ccc(Nc2nccc(N3CCC(NS(=O)(=O)c4ccc(NC(C)=O)cc4)C3)n2)cc1 (stereo not drawn) [GSK1379729]

>  <%Inh [%]>
92.3

$$$$
>  <molecule>
Nc1nc(-c2ccccc2F)c(-c2ccnc3ccccc23)s1 [GW560459]

>  <%Inh [%]>
0

$$$$
>  <molecule>
Nc1nccc2scc(-c3ccc4c(c3)CCN4C(=O)Cc3ccccc3)c12 [GSK2576924]

>  <%Inh [%]>
0

$$$$
>  <molecule>
COc1ccc(-c2cc3c(C)nc(N)nc3n([C@H]3CC[C@H](OCCO)CC3)c2=O)cn1

>  <%Inh [%]>
0

$$$$
